Hello, the source for this data is patent US20220031700A1, in case you need it.

Assay: in vivo
Conditions: mouse
reported metric: half-life

[ask] Would you kindly share the measured half-life for Cc1cccc(Oc2cnc(=O)[nH]c2)c1 ?
[reply] ~1.5 h
